Target: Peroxisome proliferator-activated receptor gamma (Homo sapiens) (UniProt P37231)
Sequence (P37231 whole entry, the tested form may be a part): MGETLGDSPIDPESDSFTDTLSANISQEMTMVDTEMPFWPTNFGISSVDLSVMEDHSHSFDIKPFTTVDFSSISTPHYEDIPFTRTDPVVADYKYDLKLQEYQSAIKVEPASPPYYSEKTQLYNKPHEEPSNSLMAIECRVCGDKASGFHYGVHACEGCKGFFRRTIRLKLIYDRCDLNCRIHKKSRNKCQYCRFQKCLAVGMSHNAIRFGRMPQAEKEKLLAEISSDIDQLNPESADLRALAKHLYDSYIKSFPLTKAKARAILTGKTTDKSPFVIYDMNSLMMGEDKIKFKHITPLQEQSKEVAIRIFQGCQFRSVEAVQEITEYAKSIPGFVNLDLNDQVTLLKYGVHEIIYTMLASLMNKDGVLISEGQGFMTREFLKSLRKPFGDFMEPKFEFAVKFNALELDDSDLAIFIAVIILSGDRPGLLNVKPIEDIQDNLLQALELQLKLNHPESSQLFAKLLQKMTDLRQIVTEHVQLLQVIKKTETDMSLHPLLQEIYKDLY
Experiment: Agonist activity at GAL4-tagged human PPARgamma ligand binding domain expressed in HepG2 cells assessed as transactivation after 20 hrs by beta-galactosidase reporter gene assay relative to pioglitazone
Assay type: cell-based
Listed below: Emax values for each entry.
Just the number in %, nothing appended.

Recorded results for 2 compounds are shown here.
O=C(O)C(Cc1ccccc1)Oc1ccc(Cl)c(F)c1 (centres undefined) ... 40
O=C(O)[C@H](Cc1ccccc1)Oc1ccc(C(F)(F)F)cc1 ... 59

What measured Emax goes with O=C(O)C(Oc1cccc(C(F)(F)F)c1)c1ccc(Cl)cc1 (centres undefined) ?
13

What measured Emax goes with `O=C(O)[C@H](Cc1ccc(Cl)cc1)Oc1ccc(Cl)cc1F` ?
70

What measured Emax goes with O=C(O)C(Cc1ccccc1)Oc1ccc(Cl)c(C(F)(F)F)c1 (centres undefined) ?
21

These measurements were taken from ChEMBL document CHEMBL1955801.
